Values were extracted from patent US20260242478A1.

I'd appreciate it if you could supply Anti-CD28 Fab signal (phage binding ELISA) values for the items below.
biological target: T1, Anti-CD28 Fab (SEQ ID NOs: 696, 697); assay: phage binding ELISA; biotinylated anti-CD28 Fab on neutravidin plate, clonal phage detected with anti-M13-HRP;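 also: crude clonal phage supernatants added briefly to wells preincubated in blocking buffer with or without CD28 antigen, then washed before detection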
T1 construct: Biotinylated and captured on neutravidin coated plates in the phage ELISA
T1 sequence (VH, as listed by the source, chain 1 of 2): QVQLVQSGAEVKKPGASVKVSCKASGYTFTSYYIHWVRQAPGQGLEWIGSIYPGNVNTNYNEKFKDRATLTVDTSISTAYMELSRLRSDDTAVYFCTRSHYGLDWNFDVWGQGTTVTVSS
T1 sequence (VL, as listed by the source, chain 2 of 2): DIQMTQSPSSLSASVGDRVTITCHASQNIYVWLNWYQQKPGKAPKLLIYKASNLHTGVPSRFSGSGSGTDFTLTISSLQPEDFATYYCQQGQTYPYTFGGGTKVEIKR
Output spec: single numeric token, no unit.

// query Which Anti-CD28 Fab signal (phage binding ELISA) value belongs to QCAAGAMWTWPVCF (tested as crude phage supernatant) [Phage-1550] ?
// result 1.5

// query Which Anti-CD28 Fab signal (phage binding ELISA) value belongs to ICAAGFIWSWPACF (tested as crude phage supernatant) [Phage-1548] ?
// result 1.51

// query Which Anti-CD28 Fab signal (phage binding ELISA) value belongs to TCAAGAMYQWPECF (tested as crude phage supernatant) [Phage-1557] ?
// result 1.48

// query Which Anti-CD28 Fab signal (phage binding ELISA) value belongs to TCAAGATYTWPTCF (tested as crude phage supernatant) [Phage-1555] ?
// result 1.48

// query Which Anti-CD28 Fab signal (phage binding ELISA) value belongs to TCAAGAHYLWPHCL (tested as crude phage supernatant) [Phage-1551] ?
// result 1.5

// query Which Anti-CD28 Fab signal (phage binding ELISA) value belongs to PCAAGAMWAWPYCL (tested as crude phage supernatant) [Phage-1552] ?
// result 1.49

// query Which Anti-CD28 Fab signal (phage binding ELISA) value belongs to NCSAGATWPWPMCF (tested as crude phage supernatant) [Phage-1553] ?
// result 1.49

// query Which Anti-CD28 Fab signal (phage binding ELISA) value belongs to SCAAGAHYKWPVCI (tested as crude phage supernatant) [Phage-1547] ?
// result 1.51

// query Which Anti-CD28 Fab signal (phage binding ELISA) value belongs to SCSAGATYEWPYCF (tested as crude phage supernatant) [Phage-1560] ?
// result 1.47

// query Which Anti-CD28 Fab signal (phage binding ELISA) value belongs to TCAAGATYSWPDCF (tested as crude phage supernatant) [Phage-1549] ?
// result 1.51

// query Which Anti-CD28 Fab signal (phage binding ELISA) value belongs to TCSAGATYKWPVCL (tested as crude phage supernatant) [Phage-1559] ?
// result 1.47

// query Which Anti-CD28 Fab signal (phage binding ELISA) value belongs to TCAAGVHFGWPLCF (tested as crude phage supernatant) [Phage-1554] ?
// result 1.49

// query Which Anti-CD28 Fab signal (phage binding ELISA) value belongs to TCAAGAHYTWPTCL (tested as crude phage supernatant) [Phage-1558] ?
// result 1.47

// query Which Anti-CD28 Fab signal (phage binding ELISA) value belongs to TCAAGASWEWPACL (tested as crude phage supernatant) [Phage-1556] ?
// result 1.48
